- system under test: purified HLA DRB1*1101 (human)
- assay info: competitive inhibition of 125I-labeled peptide binding to purified HLA
assay metric: IC50 (nM)
State just the number; it will be interpreted in nM.

q: For the binder RREVHIYYLEKANKI (modifications not checked) [Flu.PA.127 peptide …] , give its measured IC50 value.
a: 96

Where these numbers come from: patent US20080032921A1
